From: patent US20260232732A1

measurement.target: T1, biotin-peptide DYGSESTSSM (human)
T1 peptide: Biotin-DYGSESTSSM
assay.procedure: ELISA biotin-peptide; scFv 10 ug/mL; repII
Where no end group is shown, it is not given here. The star is where a group is joined. Biotin = O=C1N[C@H]2[C@H](CS[C@H]2CCCCC(=O)*)N1
Recorded OD450 values for a group of binders are listed next.
endpoint.name: OD450 (OD)

>>> observed_measurement("CCR9_HUM2 scFv (humanized anti-CCR9 scFv, SEQ ID NO: 17 with C-terminal 6xHis tag) (scFv) scFv: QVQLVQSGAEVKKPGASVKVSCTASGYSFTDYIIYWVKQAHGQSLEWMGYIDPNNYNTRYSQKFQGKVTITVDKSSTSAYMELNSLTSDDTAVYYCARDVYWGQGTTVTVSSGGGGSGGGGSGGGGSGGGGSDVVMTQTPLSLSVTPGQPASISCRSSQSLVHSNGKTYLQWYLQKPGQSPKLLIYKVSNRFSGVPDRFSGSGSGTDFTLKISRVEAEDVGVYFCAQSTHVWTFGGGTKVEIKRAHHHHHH")
0.07
>>> observed_measurement("Comparative antibody 3 (Comp-3) scFv, SR_92R (Somovilla-Crespo et al. 2018), His-tagged (scFv) scFv: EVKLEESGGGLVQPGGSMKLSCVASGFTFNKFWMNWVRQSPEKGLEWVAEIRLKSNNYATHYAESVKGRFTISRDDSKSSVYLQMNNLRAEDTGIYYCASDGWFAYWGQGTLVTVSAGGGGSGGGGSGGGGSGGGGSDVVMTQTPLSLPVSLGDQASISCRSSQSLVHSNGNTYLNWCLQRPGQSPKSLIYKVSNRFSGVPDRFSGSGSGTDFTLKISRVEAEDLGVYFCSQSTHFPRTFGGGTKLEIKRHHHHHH")
0.1
>>> observed_measurement("Comparative antibody 2 (Comp-2) scFv, 243LO326 (VH SEQ ID NO: 51 and VL SEQ ID NO: 52 of WO 2022/195028 A2), His-tagged (scFv) scFv: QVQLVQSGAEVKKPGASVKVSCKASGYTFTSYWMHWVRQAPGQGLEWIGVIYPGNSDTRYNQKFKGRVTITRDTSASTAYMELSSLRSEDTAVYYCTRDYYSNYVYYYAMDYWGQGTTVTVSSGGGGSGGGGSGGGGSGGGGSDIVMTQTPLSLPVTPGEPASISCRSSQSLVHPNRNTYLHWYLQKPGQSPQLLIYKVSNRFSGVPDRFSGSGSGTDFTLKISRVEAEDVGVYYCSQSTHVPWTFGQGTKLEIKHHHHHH")
0.09
>>> observed_measurement("Comparative antibody 1 (Comp-1) scFv, SEQ ID NO: 10 from WO2023/037125 A1, His-tagged (scFv) scFv: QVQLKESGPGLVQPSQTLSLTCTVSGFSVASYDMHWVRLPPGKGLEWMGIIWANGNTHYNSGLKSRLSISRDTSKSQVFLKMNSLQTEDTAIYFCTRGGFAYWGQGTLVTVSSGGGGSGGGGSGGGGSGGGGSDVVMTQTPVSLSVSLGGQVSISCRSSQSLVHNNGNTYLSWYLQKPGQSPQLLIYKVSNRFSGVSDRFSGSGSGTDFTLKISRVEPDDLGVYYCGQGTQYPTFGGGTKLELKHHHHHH")
0.11
